# SYSTEM NAME: Glutaminase kidney isoform, mitochondrial (Homo sapiens)
# MEASUREMENT DESCRIPTION: qHTS for Inhibitors of Glutaminase (GLS)
# CONDITIONS: GLS enzymatic activity, qHTS titration; series mostly up to 99.4 µM
The campaign covered roughly 410,000 compounds. About 850 (0.21%) were called active. About 2% were inconclusive and are not listed. The call rests on the fitted dose curve; in most records, active means well fitted inhibition curve with a large enough effect; inconclusive means small, poorly fitted or top-dose-only effect, or another doubt; inactive means no such curve, though single readings can be large or run the other way. This excerpt belongs to a sample that is enriched for actives.
Answer with one of the outcomes given here: 1 (yes) for active, 0 (no) for inactive

Solved entries:
CC(C)(C)c1ccc(S(=O)(=O)Nc2ccc(O)c(Sc3nc4ccccc4s3)c2)cc1; 0 (no)
COc1cc(C[C@H](C)N)c(OC)cc1Br; 0 (no)

Assay result, entry O=P1(N(CCCl)CCCl)NC(OO)CCO1 (configuration not stated) — outcome?
0 (no)

Assay result, entry O=C1NC(=O)N(Cc2ccco2)C(=O)/C1=C\c1ccc(-c2ccc(F)cc2)o1 — outcome?
1 (yes)

###

# SYSTEM NAME: Glutaminase kidney isoform, mitochondrial (Homo sapiens) (UniProt O94925)
# Sequence (O94925 whole entry, looked up, canonical isoform): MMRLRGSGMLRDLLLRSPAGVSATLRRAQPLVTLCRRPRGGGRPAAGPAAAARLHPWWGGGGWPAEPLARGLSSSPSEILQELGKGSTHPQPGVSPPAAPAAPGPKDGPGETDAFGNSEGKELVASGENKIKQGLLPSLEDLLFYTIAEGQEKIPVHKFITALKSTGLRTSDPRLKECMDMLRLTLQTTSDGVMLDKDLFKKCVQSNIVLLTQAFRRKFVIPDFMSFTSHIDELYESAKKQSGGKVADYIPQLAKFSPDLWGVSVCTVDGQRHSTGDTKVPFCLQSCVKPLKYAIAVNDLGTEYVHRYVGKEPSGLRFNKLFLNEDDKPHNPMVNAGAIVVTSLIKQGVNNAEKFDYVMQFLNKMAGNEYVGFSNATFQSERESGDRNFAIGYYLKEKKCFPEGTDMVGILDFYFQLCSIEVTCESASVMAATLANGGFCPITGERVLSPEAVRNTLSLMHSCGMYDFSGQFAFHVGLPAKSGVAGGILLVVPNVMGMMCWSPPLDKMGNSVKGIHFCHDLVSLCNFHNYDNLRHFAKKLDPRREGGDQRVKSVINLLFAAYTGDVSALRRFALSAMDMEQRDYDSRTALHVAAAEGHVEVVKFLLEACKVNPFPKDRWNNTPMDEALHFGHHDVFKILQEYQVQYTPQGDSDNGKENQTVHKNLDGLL
# MEASUREMENT DESCRIPTION: qHTS for Inhibitors of Glutaminase (GLS)
# CONDITIONS: GLS enzymatic activity, qHTS titration; series mostly up to 99.4 µM
Out of some 410,000 compounds screened, about 850 (0.21%) were called active. About 2% were inconclusive and are not listed. The sample as a whole holds a higher share of actives than the screen did.
RECORDED ENDPOINT: outcome

CC(C)CC1C(=O)N2CCCC2C2(O)OC(NC(=O)C3CC4c5cccc6[nH]cc(c56)CC4N(C)C3)(C(C)C)C(=O)N12 (stereo not drawn); inactive
C[C@]12CCC3[C@@H](CCC4=CC(=O)CC[C@@]43C)C1CCC2OC(=O)CCc1ccccc1 (stereo partly drawn); inactive
CC(=O)Oc1ccc2c3c1OC1C(OC(C)=O)C=CC4[C@@H](C2)N(C)CC[C@]314 (stereo partly drawn); inactive
